# measured on: T1, recombinant SARS-CoV-2 Spike RBD domain, BA.2.75.2 variant (SARS-CoV-2)
# T1 construct: also called RBD BA.2.75.2 variant
# assay name: competition ELISA, blocking of RBD binding to ACE2 ectodomain
Listed binders paired with reported Blocking %
Report the value in % with no unit label.

Look over these answered cases.
Exercise: Consider the binder SPK002M A5 antibody (antibody, human IgG1, kappa, V domains shown) VH: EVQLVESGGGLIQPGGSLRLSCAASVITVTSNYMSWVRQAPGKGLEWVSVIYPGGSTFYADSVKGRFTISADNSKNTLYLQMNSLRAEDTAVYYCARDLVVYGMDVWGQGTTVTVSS VL: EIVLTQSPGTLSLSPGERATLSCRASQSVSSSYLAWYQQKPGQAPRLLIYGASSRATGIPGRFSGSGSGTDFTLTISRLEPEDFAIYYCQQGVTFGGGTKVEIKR and give its measured Blocking %.
Solution: 95

Exercise: Blocking % lookup needed for SPK002M A3 antibody (antibody, human IgG1, kappa, V domains shown) VH: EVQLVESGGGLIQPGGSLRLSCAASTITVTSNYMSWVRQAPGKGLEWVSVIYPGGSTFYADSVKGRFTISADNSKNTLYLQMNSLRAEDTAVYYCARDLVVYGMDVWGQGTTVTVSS VL: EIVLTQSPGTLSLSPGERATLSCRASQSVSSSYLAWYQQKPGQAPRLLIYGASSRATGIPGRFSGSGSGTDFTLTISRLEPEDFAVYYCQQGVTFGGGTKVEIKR , thanks.
Solution: 96

Read the next record carefully.
Exercise: Would you kindly share the measured Blocking % for SPK002M C3 antibody (antibody, human IgG1, kappa, V domains shown) VH: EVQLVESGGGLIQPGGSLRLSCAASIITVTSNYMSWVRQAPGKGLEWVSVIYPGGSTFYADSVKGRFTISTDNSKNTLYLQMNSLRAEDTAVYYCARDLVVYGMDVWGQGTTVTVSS VL: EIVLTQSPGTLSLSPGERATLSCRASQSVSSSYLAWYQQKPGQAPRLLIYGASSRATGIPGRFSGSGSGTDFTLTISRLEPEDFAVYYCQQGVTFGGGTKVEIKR ?
Solution: 94

Recorded values, source patent US12281155.
